System: HLA-A*24
Experiment: MHC binding assay, UV-ligand exchange with beta2m ELISA (exchange yield), HLA-A*24
Set-up: species or system human
Details: binding to HLA-A*24, UV-ligand exchange
reported-property: Peptide exchange (MHC class I binding score, peptide exchange yield)

// solved cases for Peptide exchange (MHC class I binding score, peptide exchange yield) follow
substance	target-under-test	reported
220 (SYSEIKDFL; listed as Homo sapiens) [compound 220]	HLA-A*24	++++ (>=75% = ++++)
345 (EYNSDLHQFF; listed as Homo sapiens) [compound 345]	HLA-A*24	+++ (50%-75% = +++)
355 (IYVTGGHLF; listed as Homo sapiens) [compound 355]	HLA-A*24	+++ (50%-75% = +++)
275 (KYGTLDVTF; listed as Homo sapiens) [compound 275]	HLA-A*24	++++ (>=75% = ++++)
318 (TYSNSAFQYF; listed as Homo sapiens) [compound 318]	HLA-A*24	+++ (50%-75% = +++)
259 (YFIKSPPSQLF; listed as Homo sapiens) [compound 259]	HLA-A*24	++ (20%-49% = ++)
367 (LYQDHMQYI; listed as Homo sapiens) [compound 367]	HLA-A*24	++ (20%-49% = ++)
279 (VWLPASVLF; listed as Homo sapiens) [compound 279]	HLA-A*24	+++ (50%-75% = +++)
287 (IYNPNLLTASKF; listed as Homo sapiens) [compound 287]	HLA-A*24	+++ (50%-75% = +++)
300 (TYPSQLPSL; listed as Homo sapiens) [compound 300]	HLA-A*24	+++ (50%-75% = +++)

Record 201 (GYNPNRVFF; listed as Homo sapiens) [compound 201] , field Peptide exchange (MHC class I binding score, peptide exchange yield): +++ (50%-75% = +++)

Record 276 (QYLDVLHAL; listed as Homo sapiens) [compound 276] , field Peptide exchange (MHC class I binding score, peptide exchange yield): ++++ (>=75% = ++++)

---

Test system: HLA-A*24
Experiment: MHC binding assay, UV-ligand exchange with beta2m ELISA (exchange yield), HLA-A*24
Set-up: species or system human
Details: binding to HLA-A*24, UV-ligand exchange
reported-property: Peptide exchange (MHC class I binding score, peptide exchange yield)

// solved cases for Peptide exchange (MHC class I binding score, peptide exchange yield) follow
substance	reported
248 (AFPTFSVQL; listed as Homo sapiens) [compound 248]	++++ (>=75% = ++++)
274 (KQLDIANYELF; listed as Homo sapiens) [compound 274]	++++ (>=75% = ++++)
240 (YYFFVQEKI; listed as Homo sapiens) [compound 240]	+++ (50%-75% = +++)
108 (PYLVVIHTL; listed as Homo sapiens) [compound 108]	+++ (50%-75% = +++)

Record 293 (VYPHFSTTNLI; listed as Homo sapiens) [compound 293] , field Peptide exchange (MHC class I binding score, peptide exchange yield): ++++ (>=75% = ++++)

Record 359 (NYGVLHVTF; listed as Homo sapiens) [compound 359] , field Peptide exchange (MHC class I binding score, peptide exchange yield): ++++ (>=75% = ++++)
